Target: T1, recombinant dimeric c-Met (R&D systems, 358-MT/CF) (human, UniProt P08581 25-932)
T1 construct: Bought product; also called Fc-Met; recombinant c-Met
T1 sequence (P08581 25-932 limits assumed): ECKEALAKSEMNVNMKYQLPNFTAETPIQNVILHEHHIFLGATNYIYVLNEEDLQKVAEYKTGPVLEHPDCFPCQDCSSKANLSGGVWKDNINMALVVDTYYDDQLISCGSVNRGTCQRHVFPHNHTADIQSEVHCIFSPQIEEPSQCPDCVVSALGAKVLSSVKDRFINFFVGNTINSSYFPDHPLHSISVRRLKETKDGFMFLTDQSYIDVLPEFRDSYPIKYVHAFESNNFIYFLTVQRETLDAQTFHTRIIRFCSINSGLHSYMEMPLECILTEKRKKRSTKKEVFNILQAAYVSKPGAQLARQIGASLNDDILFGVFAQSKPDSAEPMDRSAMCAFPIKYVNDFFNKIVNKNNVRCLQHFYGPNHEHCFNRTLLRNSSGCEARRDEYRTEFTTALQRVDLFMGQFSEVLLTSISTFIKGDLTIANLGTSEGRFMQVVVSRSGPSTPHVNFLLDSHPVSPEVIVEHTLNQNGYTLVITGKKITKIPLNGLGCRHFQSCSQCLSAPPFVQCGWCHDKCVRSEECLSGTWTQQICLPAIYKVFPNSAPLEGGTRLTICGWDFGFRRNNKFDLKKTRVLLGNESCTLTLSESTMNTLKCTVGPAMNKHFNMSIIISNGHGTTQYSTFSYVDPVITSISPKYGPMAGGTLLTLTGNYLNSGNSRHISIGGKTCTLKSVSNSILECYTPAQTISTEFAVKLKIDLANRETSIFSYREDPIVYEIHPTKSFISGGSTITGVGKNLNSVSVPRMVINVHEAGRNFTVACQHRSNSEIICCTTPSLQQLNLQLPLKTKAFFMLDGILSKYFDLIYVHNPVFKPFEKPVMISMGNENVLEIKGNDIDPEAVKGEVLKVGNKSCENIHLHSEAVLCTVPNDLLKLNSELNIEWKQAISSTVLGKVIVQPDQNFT
Assay: SPR, periplasmic Fab over Fc-Met (around 3000 RU) on CM5 chip
Would you kindly list koff for each of these binders?
// units = s⁻¹; emit number, no label

What value of koff has been recorded for this entry: 48A1 VL shuffled Fab (Fab, V domains shown, VL-shuffled Fab with the 38H10 heavy chain, periplasmic extract; The printed 48A1 VK reads the same as the 38H10 VK) VH: EVQLVQPGVELRNPGASVKVSCKASGYIFTMNSIDWVRQAPGQGLEWMGRIDPEDGGTKYAQKFQGRVTFTADTSTSTAYVELNSLRSEDTAVYYCARVDDYYLGYDYWGQGTQVTVSS VL: EIVMTQSPSSVTASAGEKVTINCKSSQSVLWRSNQKNYLAWYQQRLGQSPRLLISWASIRESGVPDRFSGSGSTTDFTLTISSFQPEDAAVYYCQQGYSFPYTFGSGTRLEIK
0.00081

What value of koff has been recorded for this entry: 48D2 VL shuffled Fab (Fab, V domains shown, VL-shuffled Fab with the 38H10 heavy chain, periplasmic extract) VH: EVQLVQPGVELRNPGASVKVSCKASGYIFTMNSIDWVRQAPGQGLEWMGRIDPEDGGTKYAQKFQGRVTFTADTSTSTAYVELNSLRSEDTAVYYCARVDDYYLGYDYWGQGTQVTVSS VL: DIVMTQTPSSVTASAGEKVTINCKSSQSVLYNSNQKNYLAWYQQRLGQSPRLLIYWASTRESGVPDRFSGSGSTTDFTLTISSFQPEDAAVYYCQQGWSFPYTFGSGTRLEIK
0.00013

What value of koff has been recorded for this entry: 49A11 VL shuffled Fab (Fab, V domains shown, VL-shuffled Fab with the 36C4Q heavy chain, periplasmic extract) VH: QVQLVESGPGLVKPSQTLSLTCAVSGGSITTNYYYWSWIRQSPGKGLEWMGVIAYDGSTDYSPSLKSRTSISRDTSKNQFSLQLSSVTPEDTAVYYCARDVRVIATGWATANALDAWGQGTQVTVSS VL: QSALTQPPSVSGSPGKTVTISCAGTSSDVGYGNYVSWYQKLPGTAPKLLIYAVSYRASGIPDRFSGSRSGNTASLTISGLQSEDEADYYCASYRITNRHSVFGGGTHLTVL
0.00048

What value of koff has been recorded for this entry: 48C8 VL shuffled Fab (Fab, V domains shown, VL-shuffled Fab with the 38H10 heavy chain, periplasmic extract) VH: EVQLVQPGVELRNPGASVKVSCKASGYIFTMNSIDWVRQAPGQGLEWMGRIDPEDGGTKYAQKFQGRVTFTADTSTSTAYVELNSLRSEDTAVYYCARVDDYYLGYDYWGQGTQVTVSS VL: DIQLTQSPSSVTVSVGEKVTINCKSSQSVLYNSNQKNYLAWYQQRLGQSPRLLIYWASTRESGVPDRFSGSGSTTDFTLTISSFQPEDAAVYYCQQGWSFPYTFGSGTRLEIK
0.00033

What value of koff has been recorded for this entry: 36C4Q Fab (Fab, V domains shown) VH: QVQLVESGPGLVKPSQTLSLTCAVSGGSITTNYYYWSWIRQSPGKGLEWMGVIAYDGSTDYSPSLKSRTSISRDTSKNQFSLQLSSVTPEDTAVYYCARDVRVIATGWATANALDAWGQGTQVTVSS VL: QSVLTQPPSVSGSPGKTVTISCAGTSSDVGYGNYVSWYQQLPGTAPKLLIFAVSYRASGIPDRFSGSKSGNTAFLTISGLQSEDEADYYCASYRSSNNAAVFGGGTHLTVL
0.00017
